System: L1210
assay-protocol: Cytotoxicity against mouse L1210 cells by MTT assay
Assay type: functional, cell-based
Listing of entries alongside the reported IC50.
Express it in µM; write the number only.

CC1(C)C(=O)CC[C@@]2(C)[C@@H]3C[C@@H]4[C@@H]5C[C@@]3(CC[C@@H]12)C[C@@]45C    103
C[C@@H]1CC[C@]2(C)[C@H](CC[C@@H](O)[C@]2(C)O)[C@@]1(C)CC(=O)c1ccoc1    98
C[C@]1(CO)[C@@H]2CC[C@@]34C[C@H]5[C@@H](C[C@H]3[C@]2(C)CC[C@H]1O)[C@]5(C)C4    91

[ask] Report IC50 on L1210 for this entry: "CC1(C)[C@@H](O)CC[C@@]2(C)[C@@H]3C[C@@H]4[C@@H]5C[C@@]3(CC[C@@H]12)C[C@@]45C"
[reply] 133

[ask] Determine reported IC50 for C[C@@H]1CC[C@]2(C)[C@H](CC[C@@H](O)[C@]2(C)O)[C@@]12C=C(c1ccoc1)OC2 [CROTINSULARIN] ; test system: L1210.
[reply] 128

[ask] Give IC50 for this entry on L1210: "C[C@@]12CCC[C@@](C)(C(=O)O)[C@@H]1CC[C@@]13C[C@H]4[C@@H](C[C@H]12)[C@]4(C)C3"
[reply] 99
